B1: KRT34 (parent)
chain: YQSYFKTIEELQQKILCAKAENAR

Variants of: B1
Protocol Summary: protein stability index of a GFP-peptide fusion (GPS, HEK-293T) (PSI 1-6); higher = more stable;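 also: lentivirally expressed fusions sorted by FACS into six bins by GFP to DsRed ratio, PSI derived from sequencing read proportions per bin multiplied by bin number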
Experimental Context: c terminus: a fixed tail appended
Criterion: protein stability index meeting or surpassing 2. Met: rule met. Not met: rule not met.

- Mut: "Q2L"
  Cat: "rule not met"

# ---- query variant ----
QUERY: Textbook exercise: given the entry `K19A` , state whether its protein stability index is greater than or equal to 2.
RESULT: rule not met
